System: IL-17 production by CD4 T cells
assay: Human Th17 assay (IL-17 production by CD4 T cells under Th17 differentiation conditions)
Type: cell-based
details: Homo sapiens, CD4+ T, 72 h, IL-17 in supernatant after 3 days
# label = bin(measured IC50), where bins are lower segment (below 100 nM), middle segment (100 nM to below 500 nM), upper segment (500 nM or more)

Query string: Please report the category associated with OC(c1ccc(Cl)cc1)(c1cccnc1)c1ccc2nc(Cl)c(-c3ccccc3)c(Cl)c2c1 (stereo not drawn) [Example 17] , nothing else.
Result string: upper segment

Query string: Same again, this time with CN(C)c1nc2ccc(C(O)(c3ccc(F)cc3)c3cccnc3)cc2c(Cl)c1-c1ccccc1 (stereo not drawn) [Example 38]
Result string: middle segment

Query string: Same again, this time with CCCCN(C)c1nc2ccc(C(O)(c3ccncc3)c3cncn3C)cc2c(Cl)c1-c1ccccc1 (stereo not drawn) [Example 76]
Result string: lower segment

Query string: Same again, this time with CCN(CC)c1nc2ccc(C(O)(c3cccnc3)c3cccc(Cl)c3)cc2c(Cl)c1-c1ccccc1 (stereo not drawn) [Example 100]
Result string: middle segment

Query string: Same again, this time with OC(c1ccc(Cl)nc1)(c1cccc(F)c1)c1ccc2nc(Cl)c(-c3ccccc3)c(Cl)c2c1 (stereo not drawn) [Example 57]
Result string: middle segment
